experiment: Cytotoxicity against human multidrug resistant MDR1 overexpressing human KBV1 cells after 4 days by MTT assay; type: functional, cell-based; details: KB-V1, 96 h
measurement_kind: IC50 (nM)
Give bare numbers, in nM.

Some entries whose results are on file:
COc1cc2c(=O)n(CCN(Cc3ccccc3)C(C)C)c3c4cc5c(cc4nnc3c2cc1OC)OCO5	75
COc1cc2c(=O)n(CCNC(CO)(CO)CO)c3c4cc5c(cc4nnc3c2cc1OC)OCO5	280
COc1cc2c(=O)n(CCn3ccnc3)c3c4cc5c(cc4nnc3c2cc1OC)OCO5	3300

Could I get IC50 for every one of these entries?
1. COc1cc2c(=O)n(CCN(C)Cc3ccccc3)c3c4cc5c(cc4nnc3c2cc1OC)OCO5
2. COc1cc2c(=O)n(CCO)c3c4cc5c(cc4nnc3c2cc1OC)OCO5

Solution:
1: 85; 2: 18
